// provenance: ChEMBL document CHEMBL4825763

For each entry below, report its half-life value.
# experimental details: Half life in mouse at 10 mg/kg, ig administered as single dose measured upto 24 hrs by LC-MS/MS analysis
# Format: ADME, organism-based
# measurement parameters: in vivo, po
Form entry: value (h) — number only.

Sample `CC1(C)CCC(CN2CCN(c3ccc(C(=O)NS(=O)(=O)c4ccc(NCC5CCOCC5)c([N+](=O)[O-])c4)c(Oc4cnc5[nH]ccc5c4)c3)CC2)=C(c2ccc(Cl)cc2)C1` — what was its half-life?
2.78

Sample `CC1(C)CCC(CN2CCN(c3ccc(C(=O)NS(=O)(=O)c4ccc(OCC5CCOCC5)c([N+](=O)[O-])c4)c(Oc4cnc5[nH]ccc5c4)c3)CC2)=C(c2ccc(C(F)(F)F)cc2)C1` — what was its half-life?
2.99
